System: Pseudomonas tolaasii
Assay: Antibacterial activity against Pseudomonas tolaasii after 48 hrs by serial dilution technique
Type: functional
Assignment: determine reported MIC for the given molecules.
One number for each entry, in µg/mL.

# Entry Smiles, Assay Endpoint, Meas Value
records = [
    ("C=C1C(=O)O[C@H]2/C=C(\\C)[C@@H](O)CC/C(C)=C/[C@@H](O)[C@H]12", "MIC", 25),
    ("CN[C@@H]1[C@H](O[C@H]2[C@H](O[C@H]3[C@H](O)[C@@H](O)[C@H](N=C(N)N)[C@@H](O)[C@@H]3N=C(N)N)O[C@@H](C)[C@]2(O)C=O)O[C@@H](CO)[C@H](O)[C@H]1O", "MIC", 200),
    ("C=C1C(=O)O[C@H]2C[C@@]3(C)[C@H](O)CCC(=C)[C@@H]3[C@@H](O)[C@H]12", "MIC", 25),
    ("C=C1C(=O)O[C@H]2CC(=C)[C@@H](O)CC/C(C)=C/[C@@H](O)[C@H]12", "MIC", 25),
    ("C=C1C(=O)O[C@H]2C[C@@]3(C)[C@H](O)CC[C@@](C)(O)[C@@H]3[C@@H](O)[C@H]12", "MIC", 25),
]

Now turn to the next molecule.
Query :: Given the molecule C=C1C(=O)O[C@H]2/C=C(\C)[C@@H](O)CC[C@@]3(C)O[C@@H]3[C@H](O)[C@H]12 , what is its reported MIC?
Result :: 25
